So I've got a bunch of binders here, and I need their EC50 (read off the curve) values.
Molecular target: T1, TauC3 (C-terminally truncated tau fragment ending at aspartate 421 of htau40) (human, UniProt P10636 1-738)
T1 construct: Generated and purified by Genscript; also called Human TauC3; recombinant TauC3 protein
T1 sequence (P10636 other isoform, or with tags, fused parts or gaps): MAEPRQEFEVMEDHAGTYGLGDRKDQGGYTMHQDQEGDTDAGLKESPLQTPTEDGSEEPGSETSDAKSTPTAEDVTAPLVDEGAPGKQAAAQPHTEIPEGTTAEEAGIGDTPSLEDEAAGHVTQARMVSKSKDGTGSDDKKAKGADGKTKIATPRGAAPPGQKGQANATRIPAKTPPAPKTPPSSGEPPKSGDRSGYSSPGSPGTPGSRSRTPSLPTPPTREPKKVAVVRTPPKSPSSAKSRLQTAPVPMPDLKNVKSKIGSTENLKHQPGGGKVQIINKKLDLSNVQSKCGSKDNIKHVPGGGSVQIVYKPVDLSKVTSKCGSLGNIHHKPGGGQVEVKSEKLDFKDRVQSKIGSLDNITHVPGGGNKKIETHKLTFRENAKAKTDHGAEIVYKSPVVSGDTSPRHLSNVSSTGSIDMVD
Test: binding ELISA on TauC3 after 21 days at 37 C in PBS or mouse, human, cynomolgus serum, with non-incubated control
Description: Purified samples of the chimeric and humanized antibodies were incubated in mouse, human and cynomolgus serum for 21 days. The binding of the Tau01 HMKE, HMKM, HMKN, HMKO, HMKP candidate antibodies which had been incubated in the 3 different serums were compared with an antibody incubated in PBS and a 4° C. positive control sample by binding ELISA to TauC3 (FIG. 37). […]

## Task I am curious: what EC50 (read off the curve) value has been reported for MoTau01 HuG4K chimeric antibody (antibody, V domains shown, Mouse variable regions with human IgG4 / kappa constant regions (pHuG4, pHuK); also called chimeric Tau01) VH: EVQVVESGGGLVQPKGSLKLSCAASGFTFNTYAMNWVRQAPGKGLEWVARIRSKSNNYATYYADSVKDRFTISRDDSQSMVYLQMNNLKTEDTAMYYCVGGGDFWGQGTALTVSS VL: DIQMTQSPSSLSASLGERVSLTCRASQEISVYLSWFQQKPDGTIKRLIYGAFTLDSGVPKRFSGSRSGSDYSLTISSLESEDFADYYCLQYVRYPWTFGGGTKLEIK ?
## Result ~0.5 nM

## Task What EC50 (read off the curve) value was documented for this binder, Tau01 HMKE HuG4k (antibody, V domains shown, human IgG4 kappa (HuG4K); also called KMKE) VH: LVQLVESGGGLVQPGGSLKLSCAASGFTFNTYAMNWVRQASGKGLEWVARIRSKSNNYATYYAASVKGRFTISRDDSKSMAYLQMDSLKTEDTAVYYCVGGGDFWGQGTLVTVSS VL: DIQMTQSPSSLSASVGDRVTITCRASQEISVYLGWFQQKPGKAPKRLIYGAFKLQSGVPSRFSGSRSGTEFTLTISSLQPEDFATYYCLQYVRYPWTFGGGTKVEIK ?
## Result ~0.8 nM

## Task Tell me the measured EC50 (read off the curve) of Tau01 HMKP HuG4k (antibody, V domains shown, human IgG4 kappa (HuG4K); Lead candidate) VH: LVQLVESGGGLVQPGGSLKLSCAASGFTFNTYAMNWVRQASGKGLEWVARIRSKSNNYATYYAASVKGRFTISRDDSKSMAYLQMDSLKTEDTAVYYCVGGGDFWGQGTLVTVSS VL: DIQMTQSPSSLSASVGDRVTITCRASQEISVYLGWFQQKPGKAPKRLIYGAFKLQSGVPSRFSGSRSGTEYTLTISSLQPEDFATYYCLQYVRYPWTFGGGTKVEIK , please.
## Result ~0.6 nM

## Task Which EC50 (read off the curve) value belongs to Tau01 HMKO HuG4k (antibody, V domains shown, human IgG4 kappa (HuG4K)) VH: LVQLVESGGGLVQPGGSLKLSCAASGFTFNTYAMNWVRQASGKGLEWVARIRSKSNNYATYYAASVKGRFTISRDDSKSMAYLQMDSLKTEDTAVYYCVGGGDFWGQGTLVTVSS VL: DIQMTQSPSSLSASVGDRVTITCRASQEISVYLGWYQQKPGKAPKRLIYGAFSLQSGVPSRFSGSRSGTEYTLTISSLQPEDFATYYCLQYVRYPWTFGGGTKVEIK ?
## Result ~0.7 nM

## Task Endpoint output: EC50 (read off the curve) of Tau01 HMKN HuG4k (antibody, V domains shown, human IgG4 kappa (HuG4K)) VH: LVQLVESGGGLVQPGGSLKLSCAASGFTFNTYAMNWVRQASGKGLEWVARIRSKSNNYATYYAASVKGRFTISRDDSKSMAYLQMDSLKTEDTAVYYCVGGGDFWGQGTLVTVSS VL: DIQMTQSPSSLSASVGDRVTITCRASQEISVYLGWYQQKPGKAPKRLIYGAFTLQSGVPSRFSGSRSGTEYTLTISSLQPEDFATYYCLQYVRYPWTFGGGTKVEIK . Value?
## Result ~0.5 nM
